# Tested on: ETA receptors
# Protocol description: Inhibition of ET-1 induced vasoconstriction in the gerbil spiral modiolar artery
# Condition set: agonist 1 nM ET-1; antagonist 0.1-1 μM; competitive inhibition assumed
Decide by A2 (putative affinity value): equal to or exceeding 100 nM means True, less means False.

# bool: A2 (putative affinity value) of CC1(C)CC[C@]2(C(=O)O)CC[C@]3(COC(=O)/C=C/c4ccc(O)c(O)c4)C(=CC[C@@H]4[C@@]5(C)CCC(=O)C(C)(C)[C@@H]5CC[C@]43C)[C@@H]2C1 [(+)-myriceric acid A, myriceric acid A] >= 100 nM
False

Next compound: CC1(C)[C@@H]2CC[C@]3(C)[C@H](CC[C@@H]4CC[C@@]5(O)C[C@]43C=N5)[C@@]2(C)CCC12OCCO2 [(-)-4]
True

Next compound: CC1(C)C(=O)CC[C@]2(C)[C@H]3CCc4ccc(O)cc4[C@]3(C)CC[C@@H]12 [(-)-5]
True

Next compound: CC1(C)C(=O)CC[C@]2(C)[C@H]3CC[C@@H]4CCC(=O)C=C4[C@]3(C)CC[C@@H]12 [(+)-1]
True

Next compound: CC1(C)[C@@H]2CC[C@]3(C)[C@H](CC[C@@H]4CC=C(O[Si](C)(C)C(C)(C)C)C[C@]43C=N)[C@@]2(C)CCC12OCCO2 [(-)-3]
False

Next compound: CC1(C)C(=O)CC[C@]2(C)[C@H]3CC[C@@H]4CCC(=O)C[C@@]4(C#N)[C@]3(C)CC[C@@H]12 [(+)-2]
True

Next compound: CC1(C)C(=O)CC[C@]2(C)[C@H]3CCc4ccc(OCCO)cc4[C@]3(C)CC[C@@H]12 [(-)-6]
True
